The measurements presented in this section are drawn from patent US20240316054A1.

tested.system: PLK1 (Homo sapiens, UniProt P53350)
Construct: endogenous in cells; host or cells: HeLa cells stably expressing LgBit, with CRISPR/Cas9 knock-in of HiBit at the PLK1 C-terminus
Sequence (P53350 whole entry): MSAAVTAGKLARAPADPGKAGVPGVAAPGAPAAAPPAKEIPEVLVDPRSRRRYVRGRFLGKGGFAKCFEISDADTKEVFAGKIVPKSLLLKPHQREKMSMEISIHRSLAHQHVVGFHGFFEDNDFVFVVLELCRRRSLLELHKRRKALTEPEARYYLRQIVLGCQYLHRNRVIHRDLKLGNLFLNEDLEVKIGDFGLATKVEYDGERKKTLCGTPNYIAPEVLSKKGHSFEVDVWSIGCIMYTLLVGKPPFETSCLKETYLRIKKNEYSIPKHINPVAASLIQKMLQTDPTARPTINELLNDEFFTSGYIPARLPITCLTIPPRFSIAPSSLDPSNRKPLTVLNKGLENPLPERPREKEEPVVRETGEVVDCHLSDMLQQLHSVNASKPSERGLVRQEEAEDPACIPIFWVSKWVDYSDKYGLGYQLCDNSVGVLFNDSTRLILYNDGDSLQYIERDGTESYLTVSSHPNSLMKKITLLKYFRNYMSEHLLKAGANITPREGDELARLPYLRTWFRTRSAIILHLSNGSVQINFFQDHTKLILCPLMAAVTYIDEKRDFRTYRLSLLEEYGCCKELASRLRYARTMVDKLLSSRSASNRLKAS
assay.protocol: Luciferase (HiBit) assay of PLK1 degradation in HeLa LgBit (Plk1-HiBit KI) cells
Assay type: cell-based
cond: released after thymidine block, compound 300 nM, luminescence at 9 hours, DMSO-only control
quantity: PLK1 (luminescence value)
Simply state the number, no unit and no words.

For PLK1 (Homo sapiens, UniProt P53350), provide PLK1 (luminescence value) of CC[C@@H]1C(=O)N(C)c2cnc(Nc3ccc(C(=O)N[C@H]4CCN(C(=O)CCC(=O)N5CCN(c6cccc7c6C(=O)N(C6CCC(=O)NC6=O)C7=O)CC5)C4)cc3OC)nc2N1C1CCCC1 (some centres unmarked) please.
0.313

Also CC[C@@H]1C(=O)N(C)c2cnc(Nc3ccc(C(=O)NCCOCCOCCNc4cccc5c4C(=O)N(C4CCC(=O)NC4=O)C5=O)cc3OC)nc2N1C1CCCC1 (some centres unmarked) [Comparative Example 1, reference compound] ?
0.148

Next up: CC[C@@H]1C(=O)N(C)c2cnc(Nc3ccc(C(=O)NC4CCN(C(=O)CCCNc5cccc6c5C(=O)N(C5CCC(=O)NC5=O)C6=O)CC4)cc3OC)nc2N1C1CCCC1 (some centres unmarked)
0.204

Try the molecule CC[C@@H]1C(=O)N(C)c2cnc(Nc3ccc(C(=O)NC4CCN(C(=O)CCN5CCN(c6cccc7c6C(=O)N(C6CCC(=O)NC6=O)C7=O)CC5)CC4)cc3OC)nc2N1C1CCCC1 (some centres unmarked)
0.120

Also check CC[C@@H]1C(=O)N(C)c2cnc(Nc3ccc(C(=O)NCCOCCOCCNc4cccc5c4C(=O)N(C4CCC(=O)NC4=O)C5=O)cc3)nc2N1C1CCCC1 (some centres unmarked)
0.208
